target: Melanocyte-stimulating hormone receptor (Homo sapiens, UniProt Q01726); test: Effective concentration required for cAMP accumulation mediated by human Melanocortin 1 receptor in HEK293 cells
Sequence (Q01726 whole entry): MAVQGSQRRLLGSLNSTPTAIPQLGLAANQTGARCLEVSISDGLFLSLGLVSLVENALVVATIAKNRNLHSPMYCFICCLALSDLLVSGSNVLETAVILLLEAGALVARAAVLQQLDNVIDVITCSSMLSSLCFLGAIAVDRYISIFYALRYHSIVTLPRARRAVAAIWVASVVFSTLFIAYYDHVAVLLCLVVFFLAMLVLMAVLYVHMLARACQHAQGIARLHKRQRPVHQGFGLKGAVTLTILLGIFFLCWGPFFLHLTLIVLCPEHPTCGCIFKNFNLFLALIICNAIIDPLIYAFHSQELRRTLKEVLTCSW
result-type: pEC50
Give bare numbers, as −log10 of the molar value.

Here's what some known entries look like.
CCCCC(=O)N[C@]1(C(=O)N[C@H](Cc2ccccc2)C(=O)N[C@@H](CCCNC(=N)N)C(=O)N[C@@H](Cc2c[nH]c3ccccc23)C(=O)NCC(N)=O)CC[C@H](c2cccc(OC)c2)CC1
6.16
CCCCC(=O)N[C@]1(C(=O)NC(Cc2ccccc2)C(=O)NC(CCCN=C(N)N)C(=O)N[C@@H](Cc2c[nH]c3ccccc23)C(=O)NCC(N)=O)CC[C@@H](c2ccccc2)CC1 (single isomer, unassigned)
5.89

Next item in the queue.
Task: Notebook: pull reported pEC50 for Melanocyte-stimulating hormone receptor (Homo sapiens, UniProt Q01726), entry `CCCCC(=O)N[C@@]1(C(=O)N[C@H](Cc2ccccc2)C(=O)N[C@@H](CCCN=C(N)N)C(=O)N[C@@H](Cc2c[nH]c3ccccc23)C(=O)NCC(N)=O)CCc2ccccc2C1`
Result: 6.08
